# Assay Target: SHP2-C SH2;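 further: peptide library displayed on the E. coli surface as eCPX fusions, selected cells deep-sequenced, score is each peptide's frequency after selection divided by its frequency in the input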
# Assay Text: SH2 binding enrichment of the phosphorylated peptide, bacterial display (enrichment ratio); higher = better substrate or ligand; peptides without Tyr show the background
The following sequences are listed with their measured SH2 binding enrichment values.

Previously resolved entries follow.
[
  {
    "Sequence Code": "SGSIHYSCVPR [GLB1_Y57_R59C]",
    "SH2 binding enrichment": 0.747
  },
  {
    "Sequence Code": "RPYSPYIIRGM [LRP5_Y1531_R1529S]",
    "SH2 binding enrichment": 0.953
  }
]

Provide only the value of recorded SH2 binding enrichment for DPHECYAKVFN [ALB_Y394_D399N]
1.81

Provide only the value of recorded SH2 binding enrichment for TGDFGYRAPGF [TNS2_Y668_YF]
0.726

Provide only the value of recorded SH2 binding enrichment for PKKKQYTSIHH [APP_Y728_L723P]
0.946

Provide only the value of recorded SH2 binding enrichment for IKNSGYISRFL [EIF2AK3_Y585_YF]
1.1

Provide only the value of recorded SH2 binding enrichment for VYLGAYDRFLP [SLC22A5_Y486]
3.12

---

The following sequences are listed with their measured phosphorylation enrichment values.
# Tested on: c-Abl (mouse);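 further: 11-residue human phosphosite peptides and single-mutation variants displayed on the E. coli surface, counted by deep sequencing, each peptide's frequency after selection divided by its frequency in the unselected input library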;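 further: frequency after pTyr selection over input frequency; kinase dosed for 20-30% of maximal phosphorylation in three min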
# Assay Text: phosphorylation enrichment, bacterial display (enrichment ratio); higher = better substrate or ligand; peptides without Tyr show the background
No unit in the answer, please; the number alone is enough.

Previously resolved entries follow.
[
  {
    "Sequence Code": "MSRDVYSTDFF [NTRK2_Y702_YF]",
    "phosphorylation enrichment": 0.568
  },
  {
    "Sequence Code": "RHPREYQDLLN [DES_Y388_L385P]",
    "phosphorylation enrichment": 0.487
  }
]

Provide only the value of recorded phosphorylation enrichment for AKLVQYFMEHH [PTPN11_Y80_E76K_YF]
0.546

Provide only the value of recorded phosphorylation enrichment for RALLNYIASKF [GSTA3_Y74_I71L_YF]
0.638

Provide only the value of recorded phosphorylation enrichment for GLSDPYVKIHL [SYT2_Y309]
0.556

Provide only the value of recorded phosphorylation enrichment for FTHSDYQFSQR [PKP2_Y166_YF]
0.619

Provide only the value of recorded phosphorylation enrichment for RAILLYEYVGK [NATD1_Y45_V42I]
2.4

Provide only the value of recorded phosphorylation enrichment for LFSLGYHQSRW [GANAB_Y396]
0.638

Provide only the value of recorded phosphorylation enrichment for RHSGSYFVTSV [APC_Y2838_L2839F]
0.741

Provide only the value of recorded phosphorylation enrichment for YCVDCYKNFVA [FHL1_Y213]
0.737

Provide only the value of recorded phosphorylation enrichment for HISGVYKLPPD [ANGPTL7_Y145_R140H]
0.697

Provide only the value of recorded phosphorylation enrichment for KDPPDYKFQPR [SOX9_Y172_H169P_YF]
0.626

Provide only the value of recorded phosphorylation enrichment for FVKEPYIQSRF [HIPK4_Y175_YF]
0.447

Provide only the value of recorded phosphorylation enrichment for PEADKYRLPYA [FGG_Y300_T303P]
0.571

Provide only the value of recorded phosphorylation enrichment for VSAPEYGPKLK [TBC1D14_Y46_L41V]
0.469

Provide only the value of recorded phosphorylation enrichment for FTDGQYWIRGR [ACSF3_Y466_K462T]
0.611
